Value source: ChEMBL document CHEMBL1150702

# Test system: Artemia salina
# PROTOCOL_DESCRIPTION: Toxicity in Artemia salina
# Format: organism-based
# CONDITION_INFO: in vivo
LC50 by entry:
Write the answer as a number in ppm, unit excluded.

Use these answered entries as a reference point.
[
  {
    "COMPOUND": "COc1cc(C=O)ccc1O [VANILLIN]",
    "SUBJECT_OF_TEST": "Artemia salina",
    "LC50 [ppm]": 31
  },
  {
    "COMPOUND": "COc1ccc(C=O)cc1O [ISOVANILLIN]",
    "SUBJECT_OF_TEST": "Artemia salina",
    "LC50 [ppm]": 31
  },
  {
    "COMPOUND": "Oc1cc(O)cc(/C=C/c2ccc(O)c(O)c2)c1 [PICEATANNOL]",
    "SUBJECT_OF_TEST": "Artemia salina",
    "LC50 [ppm]": 278
  }
]

Consider the record given below.
The compound "COc1cc(/C=C/c2ccc(OC)c(O)c2)cc(OC)c1" , when measured on Artemia salina, yielded LC50 of 2.8
